TARGET_OF_ASSAY: T1, RL peptide (Octet assay of PS621 variants)
T1 construct: RXKLDEESILKQK with X = L
T1 peptide: RLKLDEESILKQK
PROCEDURE_SUMMARY: Octet (BLI), 30 C
TEST_READOUT: Octet response
Respond using a number only.

Below, each entry is followed by its recorded Octet response result.
>>> observed_measurement("PS1102 (designed binder, Variant of PS621) MHSKFSHAGRICGAKFKVGEPIYRCKECQFDDTCVLCVNCFNPKDHTGHHVYTTICTEFNNGICDCGDKEAWNHTLFCKAEEG")
10.4
>>> observed_measurement("PS1116 (designed binder, Variant of PS621) MHSKFSHAGRICGAKFKVGEPIYRCKECSFDDTCVLCVNCFNPKDHTYHHVYTTICTEFNNGICDCGDKEAWNHTLFCKAEEG")
8.5

Answer with reported Octet response of PS1108 (designed binder, Variant of PS621) MHSKFSHAGRICGAKFKVGEPIYRCKECSFDDTCVLCVNCFNPKDHTGHHVYTTICTERNNGICDCGDKEAWNHTLFCKAEEG
10.3
